Where these numbers come from: patent US8455469B2

- experimental-target: UniProt Q9UBN4
- Sequence (Q9UBN4 1-977): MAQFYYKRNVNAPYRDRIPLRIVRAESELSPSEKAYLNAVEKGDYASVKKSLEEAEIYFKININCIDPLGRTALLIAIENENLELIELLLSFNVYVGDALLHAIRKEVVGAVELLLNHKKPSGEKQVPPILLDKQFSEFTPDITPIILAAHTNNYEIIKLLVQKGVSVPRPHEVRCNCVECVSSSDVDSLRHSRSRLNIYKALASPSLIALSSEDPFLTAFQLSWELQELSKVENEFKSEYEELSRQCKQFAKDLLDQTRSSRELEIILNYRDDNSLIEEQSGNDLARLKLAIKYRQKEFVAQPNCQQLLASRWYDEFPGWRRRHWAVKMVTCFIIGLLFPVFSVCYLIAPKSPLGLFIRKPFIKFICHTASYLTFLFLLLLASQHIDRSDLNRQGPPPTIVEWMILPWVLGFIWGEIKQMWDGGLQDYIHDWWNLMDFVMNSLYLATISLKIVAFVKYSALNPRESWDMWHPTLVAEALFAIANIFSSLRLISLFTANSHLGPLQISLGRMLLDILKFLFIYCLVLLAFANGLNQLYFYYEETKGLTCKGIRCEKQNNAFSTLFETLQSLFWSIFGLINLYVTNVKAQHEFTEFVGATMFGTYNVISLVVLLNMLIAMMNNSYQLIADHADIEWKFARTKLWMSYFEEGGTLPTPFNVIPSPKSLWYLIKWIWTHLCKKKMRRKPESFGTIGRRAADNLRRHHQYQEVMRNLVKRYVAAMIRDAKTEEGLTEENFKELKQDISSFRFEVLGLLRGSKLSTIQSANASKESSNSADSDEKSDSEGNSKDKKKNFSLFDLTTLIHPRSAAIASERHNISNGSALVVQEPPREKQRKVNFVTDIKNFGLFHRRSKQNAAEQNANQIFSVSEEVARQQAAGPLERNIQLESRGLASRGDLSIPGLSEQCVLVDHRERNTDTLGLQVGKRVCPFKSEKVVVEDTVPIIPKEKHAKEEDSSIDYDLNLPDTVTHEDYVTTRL
- procedure-summary: FLIPR Ca2+ influx measurement, trypsin-stimulated TRPC4 HEK293 cells
- condition: FLIPR, 200 nM trypsin, n=2
- Protocol: In general, cells are provided which express a TRPC channel. Such cells can be produced using genetic methods known to a person skilled in the art. […] Ca^2+ measurements can be carried out using e.g. a Fluorescence Imaging Plate Reader (FLIPR). […] When these experiments were performed, no direct physiological stimuli of TRPC4 and TRPC5 were known. […] Kinetics and quantity of calcium store release in cells treated with 30 μM norgestimate were not changed compared to untreated cells. […]
measured-attribute: IC50

{"compound": "C#C[C@]1(OC(C)=O)CC[C@H]2[C@@H]3CCC4=C/C(=N/O)CC[C@@H]4[C@H]3CC[C@@]21CC [norgestimate]", "reported-measurement": "> 30 µM"}

###

- experimental-target: TRPC5 (Homo sapiens, UniProt Q9UL62)
- Sequence (Q9UL62 whole entry, species assumed): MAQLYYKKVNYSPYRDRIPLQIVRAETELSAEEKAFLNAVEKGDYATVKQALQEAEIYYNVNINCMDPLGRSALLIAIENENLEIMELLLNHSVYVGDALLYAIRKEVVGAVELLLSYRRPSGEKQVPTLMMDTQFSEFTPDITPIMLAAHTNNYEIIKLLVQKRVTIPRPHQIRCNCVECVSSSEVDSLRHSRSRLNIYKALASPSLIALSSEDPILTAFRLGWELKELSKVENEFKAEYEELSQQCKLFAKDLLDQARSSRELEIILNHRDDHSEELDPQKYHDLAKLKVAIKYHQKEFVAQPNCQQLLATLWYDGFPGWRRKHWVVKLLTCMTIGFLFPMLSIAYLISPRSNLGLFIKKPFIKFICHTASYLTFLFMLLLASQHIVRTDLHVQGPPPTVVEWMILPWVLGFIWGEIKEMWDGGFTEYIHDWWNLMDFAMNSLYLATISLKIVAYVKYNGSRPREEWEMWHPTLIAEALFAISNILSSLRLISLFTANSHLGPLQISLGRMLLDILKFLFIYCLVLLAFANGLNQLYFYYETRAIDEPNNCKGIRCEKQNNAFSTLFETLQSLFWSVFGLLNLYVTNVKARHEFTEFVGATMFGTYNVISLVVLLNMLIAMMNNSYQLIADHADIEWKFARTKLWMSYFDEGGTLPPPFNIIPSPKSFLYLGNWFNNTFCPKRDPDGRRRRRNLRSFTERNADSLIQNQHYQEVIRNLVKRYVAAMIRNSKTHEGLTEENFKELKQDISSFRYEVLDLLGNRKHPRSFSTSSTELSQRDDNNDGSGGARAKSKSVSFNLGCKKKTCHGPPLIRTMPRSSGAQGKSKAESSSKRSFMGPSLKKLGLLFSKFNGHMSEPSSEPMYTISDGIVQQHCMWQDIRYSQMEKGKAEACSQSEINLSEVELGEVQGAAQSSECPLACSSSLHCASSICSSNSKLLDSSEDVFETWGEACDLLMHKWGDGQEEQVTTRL
- procedure-summary: FLIPR Ca2+ influx measurement, trypsin-stimulated TRPC5 HEK293 cells
- condition: FLIPR, 200 nM trypsin, n=4
measured-attribute: IC50

{"compound": "C#C[C@]1(OC(C)=O)CC[C@H]2[C@@H]3CCC4=C/C(=N/O)CC[C@@H]4[C@H]3CC[C@@]21CC [norgestimate]", "experimental-target": "TRPC5 (Homo sapiens, UniProt Q9UL62)", "reported-measurement": "> 30 µM"}

###

- experimental-target: TRPC3 (Homo sapiens, UniProt Q13507)
- Sequence (Q13507 whole entry, species assumed): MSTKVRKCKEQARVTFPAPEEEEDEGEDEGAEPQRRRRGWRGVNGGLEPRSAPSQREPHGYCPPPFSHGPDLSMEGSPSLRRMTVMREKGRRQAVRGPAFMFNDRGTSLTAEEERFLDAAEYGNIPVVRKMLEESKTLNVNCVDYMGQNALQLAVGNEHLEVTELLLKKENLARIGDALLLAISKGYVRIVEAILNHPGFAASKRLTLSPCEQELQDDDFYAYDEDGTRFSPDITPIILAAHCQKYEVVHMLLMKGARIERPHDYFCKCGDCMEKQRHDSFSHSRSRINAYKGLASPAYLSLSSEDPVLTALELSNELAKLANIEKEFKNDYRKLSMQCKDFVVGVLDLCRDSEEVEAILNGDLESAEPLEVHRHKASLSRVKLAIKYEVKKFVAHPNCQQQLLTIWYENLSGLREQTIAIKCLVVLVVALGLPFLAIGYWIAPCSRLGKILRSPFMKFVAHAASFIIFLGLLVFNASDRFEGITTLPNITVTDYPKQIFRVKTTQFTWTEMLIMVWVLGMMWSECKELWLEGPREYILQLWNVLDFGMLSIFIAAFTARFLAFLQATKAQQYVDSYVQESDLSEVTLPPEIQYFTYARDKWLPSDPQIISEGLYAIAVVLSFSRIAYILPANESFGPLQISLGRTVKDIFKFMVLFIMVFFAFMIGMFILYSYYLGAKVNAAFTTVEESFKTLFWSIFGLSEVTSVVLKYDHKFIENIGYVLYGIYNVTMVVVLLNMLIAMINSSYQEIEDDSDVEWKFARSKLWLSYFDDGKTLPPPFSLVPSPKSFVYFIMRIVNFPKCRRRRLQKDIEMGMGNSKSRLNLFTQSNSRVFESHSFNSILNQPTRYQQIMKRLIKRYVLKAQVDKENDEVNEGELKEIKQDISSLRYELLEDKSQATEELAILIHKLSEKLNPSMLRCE
- procedure-summary: FLIPR Ca2+ influx measurement, OAG-activated TRPC3 HEK293 cells
- condition: FLIPR, 30 μM OAG, n=2

{"compound": "C#C[C@]1(OC(C)=O)CC[C@H]2[C@@H]3CCC4=C/C(=N/O)CC[C@@H]4[C@H]3CC[C@@]21CC [norgestimate]", "IC50": "2800 nM"}
